molecular target: F508delCFTR (Homo sapiens, UniProt P13569, DEL508-508); construct: expressed in transfected cells; host or cells: CFBE41o- human lung-derived epithelial cells (CFBE4lo-F508delCFTR-HRP), doxycycline-inducible; experiment: Cell Surface Expression-Horse Radish Peroxidase (CSE-HRP) Assay; type: cell-based; conditions: test compound without co-corrector; read-out: EC50 (without co-corrector)
Sequence (P13569 with tags, fused parts or gaps DEL508-508): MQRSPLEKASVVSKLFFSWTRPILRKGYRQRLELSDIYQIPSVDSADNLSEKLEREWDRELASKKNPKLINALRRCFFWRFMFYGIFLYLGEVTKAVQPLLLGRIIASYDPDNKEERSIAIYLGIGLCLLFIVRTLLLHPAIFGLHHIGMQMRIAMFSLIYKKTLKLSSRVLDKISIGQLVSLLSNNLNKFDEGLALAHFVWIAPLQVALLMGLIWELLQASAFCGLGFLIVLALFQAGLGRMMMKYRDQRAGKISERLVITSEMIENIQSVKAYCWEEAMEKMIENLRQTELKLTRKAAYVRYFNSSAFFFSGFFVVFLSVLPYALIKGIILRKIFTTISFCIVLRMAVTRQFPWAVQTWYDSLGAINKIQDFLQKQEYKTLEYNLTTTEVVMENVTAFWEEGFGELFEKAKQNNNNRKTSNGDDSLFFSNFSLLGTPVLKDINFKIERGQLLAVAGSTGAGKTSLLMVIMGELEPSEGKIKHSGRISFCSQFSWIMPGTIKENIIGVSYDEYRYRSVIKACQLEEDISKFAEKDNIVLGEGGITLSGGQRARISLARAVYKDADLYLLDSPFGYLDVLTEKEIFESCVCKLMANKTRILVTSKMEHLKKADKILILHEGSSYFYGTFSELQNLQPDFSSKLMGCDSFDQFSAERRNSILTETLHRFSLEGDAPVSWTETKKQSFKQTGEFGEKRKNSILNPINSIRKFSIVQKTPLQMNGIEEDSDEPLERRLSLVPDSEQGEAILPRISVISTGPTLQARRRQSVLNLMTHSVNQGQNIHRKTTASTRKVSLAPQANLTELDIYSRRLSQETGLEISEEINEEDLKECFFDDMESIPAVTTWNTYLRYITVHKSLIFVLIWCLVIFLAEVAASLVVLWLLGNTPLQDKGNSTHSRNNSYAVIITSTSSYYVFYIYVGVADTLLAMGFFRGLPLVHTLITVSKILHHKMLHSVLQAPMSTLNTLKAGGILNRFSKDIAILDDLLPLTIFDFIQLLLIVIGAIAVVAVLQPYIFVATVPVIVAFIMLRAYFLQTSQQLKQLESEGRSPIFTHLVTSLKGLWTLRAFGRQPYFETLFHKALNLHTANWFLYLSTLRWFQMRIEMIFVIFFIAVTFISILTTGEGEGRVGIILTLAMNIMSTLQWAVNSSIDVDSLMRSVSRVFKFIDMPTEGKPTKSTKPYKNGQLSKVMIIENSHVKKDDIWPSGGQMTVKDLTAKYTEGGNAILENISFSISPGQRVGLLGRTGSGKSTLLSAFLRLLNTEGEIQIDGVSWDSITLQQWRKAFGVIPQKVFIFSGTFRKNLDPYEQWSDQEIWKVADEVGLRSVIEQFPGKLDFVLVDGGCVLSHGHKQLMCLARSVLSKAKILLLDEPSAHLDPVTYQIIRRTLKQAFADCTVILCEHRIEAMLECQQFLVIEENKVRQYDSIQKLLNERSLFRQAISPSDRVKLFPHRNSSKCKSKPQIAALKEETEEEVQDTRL
attribute.measured: EC50

Consider the molecule shown here: CC(C)(C)[C@H]1[C@H](Nc2nc(Nc3ccccc3)ccc2C#N)[C@H](c2ccccc2)N(C(=O)C2CCCCC2)[C@@H]1C(=O)O [III-150] What is its recorded EC50?
> 10 µM

Consider the molecule shown here: Cc1cc(C(F)(F)F)cc(N[C@@H]2[C@@H](C(C)(C)C)[C@H](C(=O)NS(=O)(=O)C(C)(C)C)N(C(=O)C3CCCCC3)[C@@H]2c2ccccc2)n1 (racemic) [III-50] What is its recorded EC50?
> 10 µM

Consider the molecule shown here: COc1ccc(C(F)(F)F)cc1CN[C@H]1[C@H](C(C)(C)C)[C@@H](C(=O)O)N(C(=O)C2CC3CC3C2)[C@H]1c1ccccc1 (stereo partly drawn) [Example I-162] What is its recorded EC50?
1 to 10 µM

Consider the molecule shown here: CC(C)(C)[C@H]1[C@H](NCc2ccc3c(c2)OC(F)(F)O3)[C@H](c2ccccc2)N(C(=O)C2CCCCC2)[C@@H]1C(=O)O [III-132] What is its recorded EC50?
> 10 µM

Consider the molecule shown here: COc1ccc(C(C)(C)C)cc1CN[C@H]1[C@H](C(C)(C)C)[C@@H](C(=O)O)N(C(=O)C2CCCCN2S(C)(=O)=O)[C@H]1c1ccccc1 (stereo partly drawn) [Example I-138] What is its recorded EC50?
1 to 10 µM

Consider the molecule shown here: Cc1cc(C(F)(F)F)cc(N[C@H]2[C@H](C(C)(C)C)[C@@H](C(=O)O)N(C(=O)C3CCCCC3)[C@H]2c2ccccc2C)n1 [II-575] What is its recorded EC50?
1 to 10 µM
